Molecular target: DLG5_1, Q8TDM6
Sequence (Q8TDM6 617-713): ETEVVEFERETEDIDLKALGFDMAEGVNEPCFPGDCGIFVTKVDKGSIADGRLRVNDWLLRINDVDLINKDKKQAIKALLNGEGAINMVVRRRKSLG
Test: holdup assay
Parameters: key: below the threshold = too weak to quantify, mostly under pKd 3.1 to 4
Details: plain residues with an end cap or a label only (N-terminal biotin on a linker: ado-ado)
readout name: pKd

Previously resolved entries follow.
# binder, readout name, data value
measured = [
    ("SRPHTNETSL [MCC, P23508]", "pKd", "below the threshold"),
    ("SQDPKKPSRV [CBY2, Q8NA61]", "pKd", "below the threshold"),
    ("SGDGKTSVWI [GJC1, P36383]", "pKd", "below the threshold"),
    ("DAAHHDESNC [FMNL3, Q8IVF7]", "pKd", "below the threshold"),
    ("GTMFLRETSL [GUCY1A2, P33402]", "pKd", "below the threshold"),
    ("VKQYADVEGF [HNRNPK, P61978;P61978-2]", "pKd", "below the threshold"),
    ("KIEDVEITLV [FCHSD2, O94868]", "pKd", 3.52),
]

Data request: Please report pKd for the following binder: PKSNSSKEYV [CLDN7, O95471]
Data returned: below the threshold
